- Test system: MS2 coat protein
- assay text: apparent KD of MS2 coat protein; higher = weaker reporter binding
- condition info: Eterna round: R107; input ligand: theophylline 20 uM
Criterion: apparent KD of MS2 coat protein meeting or surpassing 200 nM. Met: T. Not met: F.

See these solved cases before continuing.
AGCAACAAGUCGGCCGCCACUCUUUUAACAUGAGGAUCACCCAUGUUUAUAUCAUGGUUUUAAUAGAGGACCGGGACAGUUGCAU [JR_ExcTryptoB_Sub005] = F
AUCGUACCUAAUGAUACCAGCAAGUGAUCAUAACAUGAGGAUCACCCAUGUAAUCAGUGAUGCCCUUGGCAGCAUAAUCGUUACA [Same State - Theophylline B (Freestyle 2)] = T
CAACUGGCAGAGGAUACCAGAUCAUUUAGAAACAUGAGGAUCACCCAUGUCGUAAGGAUAAUCCCUUGGCAGCCUAUCCGCCUCG [theeternabot_sameState_MS2_Theo_B_48] = F
AACAUGAGGAUCACCCAUGUGUCCUCGAAACGAGGACCGGUACGGCCGCCACUCGAGCUAUGUUGACGAAAAGUCAGCAUAGCAA [Mat - Exclusion - Trytophan A - D13] = T

Proceed to the following item.
Problem: Would you say UUUACGGGAAACCGAACUAAACAAAGGGAAGGAGCGCCAAACAAGGCAGGUAGGUCGCCCACAUGAGGAUCACCCAUGUGUUGGG [Exclusion Arginine A GF 25] shows apparent KD of MS2 coat protein at minimum 200 nM?
Result: F
